Please provide measured half-life for the entries that follow.
Assay: Half life of 80% diluted human plasma with 0.01 M phosphate buffer of pH 7.4
Format: ADME
Settings: 80% human plasma
Lab book: enter the figure in min, no units written.

Entry `CO/C(C)=N\S(=O)(=O)c1ccc(C)cc1` : reported half-life = ?
8.1

# input compound: `Cc1ccc(S(=O)(=O)/N=C(\OCC(=O)N(C)C)c2ccccc2)cc1` ; wanted: its half-life
2

Quick one: half-life for `COC(=NS(=O)(=O)c1ccc(C)cc1)OC` ?
32

// returns reported half-life for input `CCCO/C(=N\S(=O)(=O)c1ccc(C)cc1)c1ccccc1`
20

May I ask what half-life has been recorded for `Cc1ccc(S(=O)(=O)/N=C(\OCCCN(C)C)c2ccccc2)cc1.Cl` ?
4

Quick one: half-life of `Cc1ccc(S(=O)(=O)/N=C(\OC2CCN(C)CC2)c2ccccc2)cc1.Cl` ?
36

Entry `CCO/C(C)=N\S(=O)(=O)c1ccc(C)cc1` : reported half-life = ?
6.4

Quick one: half-life of `CCCC/C(=N/S(=O)(=O)c1ccc(C)cc1)OC` ?
28

I am curious: what half-life value has been reported for `CCO/C(CC)=N\S(=O)(=O)c1ccc(C)cc1` ?
24

----------
Assay: Half-life of hydrolysis at pH 7.4 at 37 degree C
Type: ADME
Conditions: buffer
metric: half-life
The reply must contain the numeric value and, after it, the unit.

Look at this compound and give its reported half-life. `Cc1ccc(S(=O)(=O)/N=C(\OC(C)C)c2ccccc2)cc1`
17.4 h

So what's the measured half-life for this one? `Cc1ccc(S(=O)(=O)/N=C(\OCCCN(C)C)c2ccccc2)cc1.Cl`
0.183 h

Which half-life reading was recorded for the compound `Cc1ccc(S(=O)(=O)/N=C(\OCCN2CCCCC2)c2ccccc2)cc1.Cl` ?
0.0217 h

Reported half-life for `CCCC/C(=N/S(=O)(=O)c1ccc(C)cc1)OC` : what is it?
2.67 h

Return reported half-life; argument: `CCC/C(=N/S(=O)(=O)c1ccc(C)cc1)OC`
2.42 h

Please look up its half-life: `CCO/C(=N\S(=O)(=O)c1ccc(C)cc1)c1ccccc1`
2.92 h

Name the recorded half-life for `Cc1ccc(S(=O)(=O)/N=C(\OC2CCN(C)CC2)c2ccccc2)cc1.Cl` .
1.48 h

Which value of half-life has been reported for `CCOC(=NS(=O)(=O)c1ccc(C)cc1)OCC` in the records?
26.3 h

Requested field: half-life. Item: `Cc1ccc(S(=O)(=O)/N=C(\OCC(=O)N(C)C)c2ccccc2)cc1`
2.4 h

Which half-life value belongs to `CCO/C=N\S(=O)(=O)c1ccc(C)cc1` ?
0.0133 h

Form field: reported half-life of `Cc1ccc(S(=O)(=O)/N=C(\Oc2ccccc2C(=O)OCC(=O)N(C)C)c2ccccc2)cc1`
1.52 h

----------
Experiment: Half-life of hydrolysis at pH 7.4 at 37 degree C
Format: ADME
Details: buffer
Threshold check on half-life: at or above 2 h gives yes (1), strictly below gives no (0).

Check the entry `CCO/C(CC)=N\S(=O)(=O)c1ccc(C)cc1` : does half-life equal or exceed 2 h?
no (0)

Hi team, for `COC(=NS(=O)(=O)c1ccc(C)cc1)OC` , is the recorded half-life at or above 2 h?
yes (1)

In plain terms: is recorded half-life at least 2 h for `CCO/C(C)=N\S(=O)(=O)c1ccc(C)cc1` ?
yes (1)

Assess whether reported half-life for `CO/C(=N\S(=O)(=O)c1ccc(C)cc1)c1ccccc1` sits at 2 h or higher.
no (0)

Could you please find out whether `Cc1ccc(S(=O)(=O)/N=C(\OCCN2CCCC2=O)c2ccccc2)cc1` has half-life that meets 2 h or exceeds it?
no (0)

Exam item: decide whether the reported half-life for `CCCO/C(=N\S(=O)(=O)c1ccc(C)cc1)c1ccccc1` is at least 2 h.
yes (1)

Could you tell me if the measured half-life of `CO/C(C)=N\S(=O)(=O)c1ccc(C)cc1` reaches 2 h or more?
no (0)

Answer whether half-life of `Cc1ccc(S(=O)(=O)/N=C(\OCCN(C)C)c2ccccc2)cc1.Cl` is greater than or equal to 2 h.
no (0)

----------
Experiment: Half life of 80% diluted human plasma with 0.01 M phosphate buffer of pH 7.4
Format: ADME
Conditions: 80% human plasma
For each entry below, report its half-life value.
API: value field is a number in min; no unit string.

Name the reported half-life value associated with the molecule `CCO/C(=N\S(=O)(=O)c1ccc(C)cc1)c1ccccc1`
20

Look at this molecule and give its reported half-life. `CO/C(=N\S(=O)(=O)c1ccc(C)cc1)c1ccccc1`
7

Recorded half-life for `Cc1ccc(S(=O)(=O)/N=C(\OCCN2CCCC2=O)c2ccccc2)cc1` , please?
4.8

Value lookup for half-life; key = `CCC/C(=N/S(=O)(=O)c1ccc(C)cc1)OC`
32

half-life for `CCOC(=NS(=O)(=O)c1ccc(C)cc1)OCC` ?
78

Returns the measured half-life for the input molecule. Input: `Cc1ccc(S(=O)(=O)/N=C(\OC(C)C)c2ccccc2)cc1`
195

I'd like to know its half-life. The molecule in question is `Cc1ccc(S(=O)(=O)/N=C(\Oc2ccccc2C(=O)OCC(=O)N(C)C)c2ccccc2)cc1`
0.6

----------
Exercise: state measured half-life for each of the compounds provided.
Experiment: Half-life of hydrolysis at pH 6.0 at 37 degree C
Format: ADME
Details: buffer
Use h as the unit, but write only the number.

Requested read-out: half-life. Entry: `CCO/C(C)=N\S(=O)(=O)c1ccc(C)cc1`
2.92

Tell me the measured half-life of `CO/C(C)=N\S(=O)(=O)c1ccc(C)cc1` , please.
2.5

Return reported half-life; argument: `Cc1ccc(S(=O)(=O)/N=C(\Oc2ccccc2C(=O)OCC(=O)N(C)C)c2ccccc2)cc1`
1.55

// half-life lookup, key: `Cc1ccc(S(=O)(=O)/N=C(\OC2CCN(C)CC2)c2ccccc2)cc1.Cl`
1.5

Could you tell me which half-life is on file for `CCO/C=N\S(=O)(=O)c1ccc(C)cc1` ?
0.02

Any idea what its half-life is? The compound is `COC(=NS(=O)(=O)c1ccc(C)cc1)OC`
14.5

Returns the measured half-life for the input compound. Input: `CCO/C(=N\S(=O)(=O)c1ccc(C)cc1)c1ccccc1`
3.67

Using the record for `Cc1ccc(S(=O)(=O)/N=C(\OC(C)C)c2ccccc2)cc1` , report its half-life.
23

----------
Experiment: Half life of 80% diluted human plasma with 0.01 M phosphate buffer of pH 7.4
Type: ADME
Conditions: 80% human plasma
For each of the compounds below, state its half-life.

Can you share its half-life? I mean this compound: `Cc1ccc(S(=O)(=O)/N=C(\OCCN2CCCCC2)c2ccccc2)cc1.Cl`
< 1 min

Could you tell me which half-life is on file for `CCO/C=N\S(=O)(=O)c1ccc(C)cc1` ?
< 1 min

Using the record for `Cc1ccc(S(=O)(=O)/N=C(\OCCN(C)C)c2ccccc2)cc1.Cl` , report its half-life.
< 1 min

Value source: ChEMBL document CHEMBL1123995
